- TARGET: rat NaP2b (SLC34A2) (Rattus norvegicus, UniProt Q9JJ09)
- Construct: host or cells: HEK293
- Sequence (Q9JJ09 1-695): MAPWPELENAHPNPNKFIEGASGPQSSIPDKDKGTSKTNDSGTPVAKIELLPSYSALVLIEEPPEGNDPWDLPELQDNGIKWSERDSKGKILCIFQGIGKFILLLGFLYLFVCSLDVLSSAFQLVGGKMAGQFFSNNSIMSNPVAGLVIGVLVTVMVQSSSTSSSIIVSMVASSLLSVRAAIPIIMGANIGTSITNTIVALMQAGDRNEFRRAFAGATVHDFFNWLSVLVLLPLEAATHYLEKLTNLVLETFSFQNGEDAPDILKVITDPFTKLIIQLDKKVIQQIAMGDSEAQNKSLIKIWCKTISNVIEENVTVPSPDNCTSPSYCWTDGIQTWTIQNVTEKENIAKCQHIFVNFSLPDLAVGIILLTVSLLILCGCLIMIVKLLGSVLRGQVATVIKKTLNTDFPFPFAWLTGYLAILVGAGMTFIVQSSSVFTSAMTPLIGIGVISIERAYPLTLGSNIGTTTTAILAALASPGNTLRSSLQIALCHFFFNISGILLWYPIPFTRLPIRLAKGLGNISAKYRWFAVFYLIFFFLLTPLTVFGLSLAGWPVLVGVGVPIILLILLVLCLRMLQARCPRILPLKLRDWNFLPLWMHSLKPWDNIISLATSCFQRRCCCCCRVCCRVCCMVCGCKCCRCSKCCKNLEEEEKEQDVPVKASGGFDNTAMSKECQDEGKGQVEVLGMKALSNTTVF
- PROCEDURE SUMMARY: Inhibition of NaP2b-mediated Pi (33P) uptake in transfected HEK293 cells, rat NaP2b
- Assay type: cell-based
- EXPERIMENTAL CONTEXT: 33P Pi uptake, 0.1 mM phosphate, value given as pIC50 range
QUANTITY NAME: IC50

Recorded IC50 (compound O=C(O)CCOCCOCCOCCOCCOCCOCCOCCOCCSCc1cccc(C(=O)Nc2ccc(N3CCCCC3)cc2-c2cc(C(=O)NCc3cccc(C(F)(F)F)c3)ccn2)c1 [Example 8.22] ): 1 to 7.94 µM

Reported IC50 for O=C(NCc1cccc(C(F)(F)F)c1)c1ccnc(-c2cc(N3CCCCC3)ccc2NC(=O)c2cccc(CSCCOCCOCCOCCOCCC(=O)N3CCC(N4CCOCC4)CC3)c2)c1 [Example 154] was 10 to 31.6 µM

Lookup result for O=C(O)CCSCc1cccc(C(=O)Nc2ccc(N3CCCCC3)cc2-c2cc(Nc3cccc(C(F)(F)F)c3)ccn2)c1 [Example 72] ; measured IC50: 10 to 31.6 µM

Reported IC50 of O=C(O)CCOCCOCCOCCOCCCc1cccc(C(=O)Nc2ccc(OC3CCC3)cc2-c2cc(C(=O)N[C@H]3CCCc4ccccc43)ccn2)c1 [Example 285] : < 1 µM

Form: compound = CN(C)c1ccc(CNC(=O)c2ccnc(-c3cc(N4CCCCC4)ccc3NC(=O)c3cccc(CSCCC(=O)O)c3)c2)cc1 [Example 1.10] ; IC50 = 1 to 7.94 µM

response.value for CCN(CC)c1ccc(NC(=O)c2cccc(C#CCOCCOCCOCCOCCOCCOCCOCCOCCOC)c2)c(-c2cc(C(=O)NCc3cccc(C(F)(F)F)c3)ccn2)c1 [Example 268] (field: IC50) = < 1 µM

Recorded IC50 (compound O=C(O)CCCc1ccc(SCc2cccc(C(=O)Nc3ccc(N4CCCCC4)cc3-c3cc(C(=O)NCc4cccc(C(F)(F)F)c4)ccn3)c2)cc1 [Example 8.9] ): 1 to 7.94 µM

According to the records, this compound CCN(CC)CCN(C)C(=O)CCOCCOCCOCCOCCSCc1cccc(C(=O)Nc2ccc(N3CCCCC3)cc2-c2cc(C(=O)NCc3cccc(C(F)(F)F)c3)ccn2)c1 [Example 152] displays IC50 of 1 to 7.94 µM

get_value(item= CN(CCOCCOCCOCCC(=O)O)C(=O)Cc1cccc(SCc2cccc(C(=O)Nc3ccc(Cl)cc3-c3cc(C(=O)N[C@H]4CCCc5ccccc54)ccn3)c2)c1 [Example 239] , readout=IC50) returns < 1 µM

Measured IC50, CCN(CC)c1ccc(NC(=O)c2cccc(CCCOCCOCCOCCOCCNC(=O)C34CC5CC(CC(C5)C3)C4)c2)c(-c2cc(C(=O)N[C@H]3CCCc4ccccc43)ccn2)c1 [Example 322] : 1 to 7.94 µM

Just so you know, measured IC50 for O=C(O)CCOCCOCCOCCOCCCc1cccc(C(=O)Nc2ccc(N3CCCCC3)cc2-c2cc(C(=O)NCc3cccc(C(F)(F)F)c3)ccn2)c1 [Example 303] came out at 1 to 7.94 µM

GET /value?item= O=C(O)CCSCc1cccc(C(=O)Nc2ccc(N3CCCCC3)cc2-c2cc(C(=O)NCc3ccc(F)c(OC(F)(F)F)c3)ccn2)c1 [Example 1.25] &field=IC50 returns 1 to 7.94 µM

The recorded IC50 for CC(C)(C)c1ccc(CNC(=O)c2ccnc(-c3cc(N4CCCCC4)ccc3NC(=O)c3cccc(CSCCC(=O)O)c3)c2)cc1 [Example 1.3] is 1 to 7.94 µM

Quick note, IC50 for CCN(CC)c1ccc(NC(=O)c2cccc(C(=O)N(C)CCN3CCC[C@H]3C(=O)NCCOCCOCCOCCOCCOCCOCCOCCOC)c2)c(-c2cc(C(=O)NCc3cccc(C(F)(F)F)c3)ccn2)c1 [Example 203] landed at 1 to 7.94 µM

For record CCN(CC)c1ccc(NC(=O)c2cccc(C(=O)N(C)CCOCCOCCOCCC(=O)O)c2)c(-c2cc(C(=O)NCc3cccc(C(F)(F)F)c3)ccn2)c1 [Example 188] the listed IC50 is 1 to 7.94 µM

Value of IC50 reported for the compound O=C(O)CCSCc1cccc(C(=O)Nc2ccc(N3CCCCC3)cc2-c2cc(C(=O)NCc3ccc(C(F)(F)F)cc3)ccn2)c1 [Example 1.47] is 1 to 7.94 µM

// IC50 lookup, compound = CN(CCN1CCOCC1)C(=O)c1cccc(C(=O)Nc2ccc(N3CCCCC3)cc2-c2cc(C(=O)NCc3cccc(C(F)(F)F)c3)ccn2)n1 [Example 11.1] , result: 1 to 7.94 µM

Lab book: IC50 of CN(CCN1CCOCC1)C(=O)c1cccc(C(=O)Nc2ccc(OC3CCC3)cc2-c2cc(C(=O)N[C@H]3CCCc4ccccc43)ccn2)c1 [Example 132] noted as < 1 µM

IC50 for CCN(CC)c1ccc(NC(=O)c2cccc(CCCOCCOCCOCCOCCC(=O)N(CCO)CCO)c2)c(-c2cc(C(=O)N[C@H]3CCCc4ccccc43)ccn2)c1 [Example 282] is < 1 µM

get_value(item= CN(CCOCCOCCOCCC(=O)O)C(=O)c1cccc(C(=O)Nc2ccc(N3CCCCC3)cc2-c2cc(C(=O)NCc3cccc(C(F)(F)F)c3)ccn2)c1 [Example 248] , readout=IC50) returns 10 to 31.6 µM

Documented IC50 of CN(CCN1CCOCC1)C(=O)c1cccc(C(=O)Nc2ccc(N3CCCCC3)cc2-c2cc(NCc3cccc(C(F)(F)F)c3)ccn2)c1 [Example 104] : 10 to 31.6 µM

Lab note: O=C(O)CCSCc1cccc(C(=O)Nc2ccc(N3CCCCC3)cc2-c2cc(C(=O)NCc3cccc(CN4CCOCC4)c3)ccn2)c1 [Example 1.16] gave IC50 of 10 to 31.6 µM

Entry Cc1cc(C(=O)NCc2cccc(C(F)(F)F)c2)cc(-c2cc(N3CCCCC3)ccc2NC(=O)c2cccc(CSCCC(=O)O)c2)n1 [Example 85] — recorded IC50 = 1 to 7.94 µM

---

- TARGET: rat NaP2b (SLC34A2) (Rattus norvegicus, UniProt Q9JJ09)
- Construct: host or cells: HEK293
- Sequence (Q9JJ09 1-695): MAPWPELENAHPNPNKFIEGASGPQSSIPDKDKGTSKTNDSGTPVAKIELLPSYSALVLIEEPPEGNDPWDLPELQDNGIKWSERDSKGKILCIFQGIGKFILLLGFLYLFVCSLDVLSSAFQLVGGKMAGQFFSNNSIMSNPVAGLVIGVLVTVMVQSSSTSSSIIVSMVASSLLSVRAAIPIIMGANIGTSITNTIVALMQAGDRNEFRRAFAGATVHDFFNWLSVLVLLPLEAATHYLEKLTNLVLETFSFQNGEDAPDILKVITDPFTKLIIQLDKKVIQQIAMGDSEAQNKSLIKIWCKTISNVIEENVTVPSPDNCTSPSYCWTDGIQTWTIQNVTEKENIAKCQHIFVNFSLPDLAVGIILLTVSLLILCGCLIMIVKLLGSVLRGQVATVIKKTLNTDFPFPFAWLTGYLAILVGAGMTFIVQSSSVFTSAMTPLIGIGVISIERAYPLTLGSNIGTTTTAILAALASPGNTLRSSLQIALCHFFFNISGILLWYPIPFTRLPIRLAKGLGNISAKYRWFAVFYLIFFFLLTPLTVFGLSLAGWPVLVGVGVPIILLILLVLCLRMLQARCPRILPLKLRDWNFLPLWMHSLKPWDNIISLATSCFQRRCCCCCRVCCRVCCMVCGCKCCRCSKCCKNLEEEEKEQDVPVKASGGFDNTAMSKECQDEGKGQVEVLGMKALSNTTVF
- PROCEDURE SUMMARY: Inhibition of NaP2b-mediated Pi (33P) uptake in transfected HEK293 cells, rat NaP2b
- Assay type: cell-based
- EXPERIMENTAL CONTEXT: 33P Pi uptake, 0.1 mM phosphate, value given as pIC50 range
Consider the following compounds; for each one, report its IC50.

Sure, the documented IC50 for O=C(O)CNC(=O)CCSCc1cccc(C(=O)Nc2ccc(N3CCCCC3)cc2-c2cc(C(=O)NCc3cccc(C(F)(F)F)c3)ccn2)c1 is 10 to 31.6 µM

// recorded IC50 for COCCNC(=O)N1CCN(CCN(C)C(=O)c2cccc(C(=O)Nc3ccc(N4CCCCC4)cc3-c3cc(C(=O)NCc4cccc(C(F)(F)F)c4)ccn3)c2)CC1 : 10 to 31.6 µM

Form: compound = O=C(O)CCSCc1cccc(C(=O)Nc2ccc(N3CCCCC3)cc2-c2cc(C(=O)NCc3ccc(-n4cccn4)cc3)ccn2)c1 ; IC50 = 10 to 31.6 µM

IC50 measured on O=C(O)CCSCc1cccc(C(=O)Nc2ccc(Cl)cc2-c2cc(NCc3cccc(C(F)(F)F)c3)ncn2)c1 = 10 to 31.6 µM

So for O=C(NCc1cccc(C(F)(F)F)c1)c1ccnc(-c2cc(N3CCCCC3)ccc2NC(=O)c2cccc(C(=O)N3CCC(N4CCOCC4)CC3)c2)c1 , the logged IC50 turned out to be 10 to 31.6 µM

The recorded IC50 for CN(CCN1CCCN(S(C)(=O)=O)CC1)C(=O)c1cccc(C(=O)Nc2ccc(N3CCCCC3)cc2-c2cc(C(=O)N[C@H]3CCCc4ccccc43)ccn2)c1 is < 1 µM
